- Test system: UCD52 (cells of a triple-negative basal-like breast cancer xenograft);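 also: PDX cells carrying CMV promoter-driven luciferase, viability read as total photon flux per second by IVIS imaging following D-luciferin, vehicle control 0.1% DMSO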
- ASSAY_PROTOCOL: cell viability (% of vehicle); higher = less cytotoxic
- ASSAY_SETUP: 10 µM; 72 h
Please provide measured cell viability for the entries that follow.
One number for each entry.

Record cell viability for all entries; do not skip any.
1. N#Cc1ccc(C(c2ccc(C#N)cc2)n2cncn2)cc1
2. CC(CCC(=O)O)C1CCC2C3C(O)CC4CC(O)CCC4(C)C3CC(O)C12C (centres undefined)
3. Nc1c(CC(=O)[O-])cccc1C(=O)c1ccc(Br)cc1.[Na+] [Bromfenac Sodium]

126
101
89

Lab request: please report cell viability under test system UCD52 for O=C(CCCN1CCC(O)(c2ccc(Cl)cc2)CC1)c1ccc(F)cc1 61.6
